Collected protein stability index values appear next to each entry.
B1: RAB11A (parent)
chain: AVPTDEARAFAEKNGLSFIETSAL

- Variants of: B1
- Experiment: protein stability index of a GFP-peptide fusion (GPS, HEK-293T) (PSI 1-6); higher = more stable;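 note: lentivirally expressed fusions sorted by FACS into six bins by GFP to DsRed ratio, PSI derived from sequencing read proportions per bin multiplied by bin number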
- Recorded Conditions: c terminus: a fixed tail appended

Use these answered entries as a reference point.
[[record]]
mutant_label = "K13G"
quantity_measured = "protein stability index"
result = 3.15

[[record]]
mutant_label = "N14W"
quantity_measured = "protein stability index"
result = 1.74

[[record]]
mutant_label = "N14T"
quantity_measured = "protein stability index"
result = 2.39


input: // protein stability index lookup, key: S22I
output: 1.76

input: Recorded protein stability index of E6S , please.
output: 2.09

input: Form field: reported protein stability index of A9I
output: 2.33

input: Field request: protein stability index | item: F18Y
output: 2.62

input: Quick check: protein stability index of S17N ?
output: 1.56
